Attribute: Growth Rate
- System: HEK-293T
- ASSAY OVERVIEW: Incucyte cell viability with HEK293T; also: unitless GR value; below 1 slowed growth and below 0 cell loss
- Format: toxicity, cell-based
- MEASUREMENT PARAMETERS: human, 12 h, 10 µM, compound concentration 10 uM, replicate number 1, timepoint 12 hours
Number only, no unit.

Record excerpt, results attached:
Cl.FC(F)(F)c1ccc(N2CCNCC2)nc1Cl | 0.89
CC(=O)NCC(=O)N1[C@@H]2CC[C@H]1c1ccc(Nc3ncc(C(F)(F)F)c(NC4CCC4)n3)cc12 | -0.54
C=CCN1C[C@H](C(=O)N(CCCN(C)C)C(=O)NCC)C[C@@H]2c3cccc4[nH]cc(c34)C[C@H]21 | 0.93

Then there is this compound:
What reported Growth Rate corresponds to CC[C@H](Nc1ncnc2[nH]cnc12)c1nc2cccc(F)c2c(=O)n1-c1ccccc1 on HEK-293T?
0.52

---

- System: HEK-293T
- ASSAY OVERVIEW: Incucyte cell viability with HEK293T; also: unitless GR value; below 1 slowed growth and below 0 cell loss
- Format: toxicity, cell-based
- MEASUREMENT PARAMETERS: human, 24 h, 10 µM, compound concentration 10 uM, replicate number 2, timepoint 24 hours
Rule: measured Growth Rate below -0.02 gets 1.0; anything equal to or greater than -0.02 gets 0.0.

Cc1nc2ccc(Oc3ccc(F)cc3)cc2c(=O)n1C[C@H]1CCCN(C(C)C)C1.Cl | 1.0

Below -0.02 on Growth Rate? Entry Cc1nc(C#Cc2cccnc2)cs1.Cl
0.0

Next entry: CC(C)NCC(O)COc1cccc2[nH]ccc12 (stereo not drawn) [PINDOLOL]
0.0

Next entry: C[C@@](Cc1c[nH]c2ccccc12)(NC(=O)Nc1ccc([N+](=O)[O-])cc1)C(=O)NCC1(c2ccccn2)CCCCC1
1.0

Next entry: COc1cc(N2CCN(C)CC2)ccc1Nc1nccc(-c2cn(C)c3cnccc23)n1
0.0

Next entry: O=C1NC(NC23CC4CC(CC(C4)C2)C3)=N/C1=C\c1ccc2ncsc2c1
0.0

Next entry: Cc1cc(=O)n(C)c2cc(N3C(=O)CC[C@H](NS(=O)(=O)CC(C)C)[C@H]3c3ccc(Cl)cc3)ccc12
0.0

Next entry: Cc1ccccc1C#Cc1ccc(CCC(=O)O)cc1
0.0

---

- Tested on: Fibroblast
- ASSAY OVERVIEW: Incucyte cell viability with human fibroblast; also: unitless GR value; below 1 slowed growth and below 0 cell loss
- Assay type: toxicity, cell-based
- MEASUREMENT PARAMETERS: 0 h, 10 µM, compound concentration 10 uM, replicate number 1, timepoint 0 hours
Rule: measured Growth Rate below 0.2 gets satisfied; anything equal to or greater than 0.2 gets not satisfied.

Solved cases below.
Cl.O=C1CC[C@@]2(O)[C@H]3Cc4ccc(O)c5c4[C@@]2(CCN3CC2CC2)[C@H]1O5 [NALTREXONE HYDROCHLORIDE] | not satisfied
CCCN(CCC)CCc1cccc2c1CC(=O)N2.Cl [ROPINIROLE HYDROCHLORIDE] | not satisfied
CC(C)[C@H](C(=O)Nc1ccc(C(=O)NO)cc1)c1ccccc1 | not satisfied

Below 0.2 on Growth Rate? Entry C[C@]1(O)CC[C@H]2[C@@H]3CCC4=CC(=O)CCC4=C3C=C[C@@]21C
not satisfied

Next entry: CCCCC1=NC2(CCCC2)C(=O)N1Cc1ccc(-c2ccccc2-c2nnn[nH]2)cc1
not satisfied

Next entry: Cc1onc(-c2ccccc2Cl)c1C(=O)N(C)c1ccc(Cl)cc1
satisfied

Next entry: Nc1ncnc2c1ncn2[C@@H]1O[C@H](CO)[C@@H](O)[C@H]1O
not satisfied

Next entry: N[C@@]1(C(=O)O)CC[C@H]2[C@H](C(=O)O)[C@H]21
satisfied

Next entry: O=C(O)c1cc2ccccc2c(Cc2c(O)c(C(=O)O)cc3ccccc23)c1O
satisfied

Next entry: CCc1ccccc1C(=O)Nc1n[nH]c2c(C)c(F)c(C3C(C#N)=C(C)N(C)C(C)=C3C#N)cc12
not satisfied

---

- Test system: U2OS
- ASSAY OVERVIEW: Incucyte cell viability with U2OS; also: unitless GR value; below 1 slowed growth and below 0 cell loss
- Type: toxicity, cell-based
- MEASUREMENT PARAMETERS: human, 6 h, 10 µM, compound concentration 10 uM, replicate number 1, timepoint 6 hours
Attribute: Growth Rate
Number only, no unit.

Record excerpt, results attached:
Cc1ccccc1N1CCN(CCc2nnc3n2CCCC3)CC1.Cl [DAPIPRAZOLE HYDROCHLORIDE] | 0.94
Cc1nc2ccc(Oc3ccc(F)cc3)cc2c(=O)n1C[C@H]1CCCN(C(C)C)C1.Cl | -0.6
COc1cc(Nc2ncc3c(n2)-c2ccc(Cl)cc2C(c2c(F)cccc2OC)=NC3)ccc1C(=O)O | 0.83

Item CC[C@@]1(O)C(=O)OCc2c1cc1n(c2=O)Cc2cc3ccccc3nc2-1 has what recorded Growth Rate?
0.7

---

- Test system: U2OS
- ASSAY OVERVIEW: Incucyte cell viability with U2OS; also: unitless GR value; below 1 slowed growth and below 0 cell loss
- Assay type: toxicity, cell-based
- MEASUREMENT PARAMETERS: human, 0 h, 10 µM, compound concentration 10 uM, replicate number 2, timepoint 0 hours
MEASUREMENT LABEL: Growth Rate
Number only, no unit.

Record excerpt, results attached:
N[C@@]1(C(=O)O)CO[C@H]2[C@H](C(=O)O)[C@H]21 [LY-379268] | -0.79
CN(C)C(=O)Cn1cc(-c2ccc(-c3nnc4ccccn34)cc2)cn1 | 0.08
C[C@@H]1C[C@H]2[C@@H]3CCC4=CC(=O)C=C[C@]4(C)[C@@]3(F)[C@@H](O)C[C@]2(C)[C@@]1(O)C(=O)CO [DEXAMETHASONE] | -1
CC(C)Oc1ccc(F)c(-c2cnc(N)c(C(=O)Nc3cnccc3N3CCC[C@@H](C(=O)O)C3)n2)c1 | -1
Cc1cc(=O)n(C)c2cc(N3C(=O)CC[C@H](NS(=O)(=O)CC(C)C)[C@H]3c3ccc(Cl)cc3)ccc12 | -0.09

Item CN(C)C(=O)Cn1cc(-c2ccc(-c3cncc4ccccc34)cc2)cn1 has what recorded Growth Rate?
0.27

Next entry: NC(N)=Nc1nc(CSCCC(N)=NS(N)(=O)=O)cs1 [FAMOTIDINE]
-1

Next entry: CCCCC/C=C\C/C=C\C/C=C\C/C=C\CCCC(=O)NCC(=O)O [ARACHIDONOYL GLYCINE]
0.28

---

- Test system: Fibroblast
- ASSAY OVERVIEW: Incucyte cell viability with human fibroblast; also: unitless GR value; below 1 slowed growth and below 0 cell loss
- Assay type: toxicity, cell-based
- MEASUREMENT PARAMETERS: 6 h, 10 µM, compound concentration 10 uM, replicate number 2, timepoint 6 hours
Rule: measured Growth Rate below 0.1 gets criterion met; anything equal to or greater than 0.1 gets criterion not met.

Solved cases below.
COc1cc2nc(N(C)CCCNC(=O)C3CCCO3)nc(N)c2cc1OC.Cl (stereo not drawn) [ALFUZOSIN HYDROCHLORIDE] | criterion not met
CC[C@H]1OC(=O)[C@H](C)[C@@H](O[C@H]2C[C@@](C)(OC)[C@@H](O)[C@H](C)O2)[C@H](C)[C@@H](O[C@@H]2O[C@H](C)C[C@H](N(C)C)[C@H]2O)[C@@]2(C)CC(C)=C(O2)[C@H](C)[C@@H](O)[C@]1(C)O | criterion not met
CCCCCCNC(=O)Nc1ccc(S(=O)(=O)Nc2ccc(CCNC[C@H](O)COc3ccc(O)cc3)cc2)cc1 | criterion met
C[C@]1(O)CC[C@H]2[C@@H]3CCC4=CC(=O)CCC4=C3C=C[C@@]21C | criterion not met
CN[C@@H](C)C(=O)N[C@H](C(=O)N1CCC[C@H]1C(=O)Nc1snnc1-c1ccccc1)C1CCCCC1 | criterion met
CCNC1(C(N)=O)CCN(c2ncnc3c2nc(-c2ccccc2Cl)n3-c2ccc(Cl)cc2)CC1 | criterion not met

Below 0.1 on Growth Rate? Entry N#Cc1c(Oc2cccc(OS(=O)(=O)CCCC(F)(F)F)c2)cccc1C(F)(F)F
criterion met

Next entry: CC[C@H](NC(=O)c1c(C)c(-c2ccccc2)nc2ccccc12)c1ccccc1
criterion met

---

- Tested on: HEK-293T
- ASSAY OVERVIEW: Incucyte cell viability with HEK293T; also: unitless GR value; below 1 slowed growth and below 0 cell loss
- Type: toxicity, cell-based
- MEASUREMENT PARAMETERS: human, 0 h, 10 µM, compound concentration 10 uM, replicate number 2, timepoint 0 hours
Classification field: Condition met = Growth Rate at or over 0.2; Condition not met = Growth Rate under 0.2.

Solved cases below.
Cc1ccc(OCC(O)C(C)NC(C)C)c2c1CCC2.Cl (configuration not stated) | Condition met
CN[C@@H](C)C(=O)N[C@H]1CCCC[C@H]2CC[C@@H](C(=O)N[C@@H](c3ccccc3)c3cn(CCCCc4ccc(CCCCn5cc([C@@H](NC(=O)[C@@H]6CC[C@@H]7CCCC[C@H](NC(=O)[C@H](C)NC)C(=O)N76)c6ccccc6)nn5)cc4)nn3)N2C1=O | Condition met
Cc1nccc(COC(=O)N2C[C@@H]3[C@@H](CNC(=O)c4ccc5[nH]nnc5c4)[C@@H]3C2)n1 | Condition met
CN[C@@H]1CCc2[nH]c3ccc(C(N)=O)cc3c2C1.O.O=C(O)CCC(=O)O [FROVATRIPTAN SUCCINATE] | Condition not met
Cc1cc(C)cc([C@H]2c3cc(C)ccc3NC(=O)CN2C(=O)c2ccc(Br)s2)c1 | Condition not met

# evaluate next
Does Growth Rate meet or surpass 0.2 for CC[C@@]1(O)C(=O)OCc2c1cc1n(c2=O)Cc2cc3ccccc3nc2-1 ?
Condition met
